Tested on: HCC-2998 colon
assayName: NCI-60 one-dose screen, 48 h (100 = growth as untreated, 0 = no growth, -100 = all killed)
experimentalContext: 10 µM unless noted
The panel holds about 83,000 compounds, 20% with a hit somewhere; the sample as a whole holds those more often.
readout: growth (%)

* CCOc1ccc2nc(NC(=O)Nc3ccccc3C)sc2c1 | 81.4
* O=C(CCCCCCN1CC(=O)N2[C@@H](c3cccc(Br)c3)c3[nH]c4ccccc4c3C[C@H]2C1=O)NO | 41.6
* O=C(CN1CCN(c2cc(=O)n(-c3ccccc3)c3ccccc23)CC1)Nc1ccc([N+](=O)[O-])cc1 | 105
* N/C(=N\c1nc2ccc([N+](=O)[O-])cc2s1)C(Cl)(Cl)Cl | 74
* CCOC(=O)/C=c1\sc2n(c1=O)C1C(NN=2)N(CC)C(=O)N1CC (stereo not given) | 77.1
